src = patent US20250376535A1

OD450 values for the binders below.
target: T1, EGFR Fc (human, UniProt P00533 25-645); experiment: ELISA, EGFR Fc coated, VHH at 0.016 nM
T1 construct: also called EGFR-hFc; recombinant human EGFR-Fc
Keep it simple and answer with nothing but the number.

pgEG-SX56 (VHH, not shown: small tags and cut ends) VHH: QVQLVESGGGFVQAGGSLRLSCAASGRFLSIADMDWYRRVPGKQRELVASITRAGDTALEDSVKGRFTISRDNAKNTVHLQMNSVKPEDTAVYYCRADVTRSGTPYFEVWGQGTLVTVSS = 0.569

INPUT: Requested read-out: OD450. Entry: pgEG5 (VHH, not shown: small tags and cut ends) VHH: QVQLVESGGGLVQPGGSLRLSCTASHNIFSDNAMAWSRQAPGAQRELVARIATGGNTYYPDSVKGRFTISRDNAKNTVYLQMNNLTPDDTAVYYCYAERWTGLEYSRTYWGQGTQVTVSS
OUTPUT: 0.147

INPUT: Name the recorded OD450 for pgEG-SX6 (VHH, not shown: small tags and cut ends) VHH: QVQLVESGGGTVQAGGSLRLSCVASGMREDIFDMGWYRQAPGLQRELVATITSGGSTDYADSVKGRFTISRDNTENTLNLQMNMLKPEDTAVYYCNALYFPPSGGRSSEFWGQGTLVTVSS .
OUTPUT: 0.139

INPUT: Can you look up the measured OD450 of pgEG-SX20 (VHH, not shown: small tags and cut ends) VHH: QVQLVESGGGLVQAGGSLRLSCAGARSAFSIKPMTWYRQAPGKERELVAYFNSGGSTNYADSVKGRFTISRDNAKNTMYLQMNNLKPEDTAVYYCNAIPPLGSWGQGTQVTVSS for me?
OUTPUT: 1.13
